B1: Lysozyme C, P61626 (parent)
chain: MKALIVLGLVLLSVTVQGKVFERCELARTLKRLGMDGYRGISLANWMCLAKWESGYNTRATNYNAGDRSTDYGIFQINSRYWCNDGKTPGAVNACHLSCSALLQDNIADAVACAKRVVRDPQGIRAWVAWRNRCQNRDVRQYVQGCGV

Variants of: B1
measurementSetup: Homo sapiens; pH 2.7; Thermal; DSC; glycine-HCl 0.05 M; reversible: yes; structure 1LZ1; whole UniProt chain shown
unfolding enthalpy (calorimetric) below 100 kcal/mol gives not satisfied; unfolding enthalpy (calorimetric) at or above it gives satisfied.

>>> assignedcategory("V20M")
"satisfied"
>>> assignedcategory("V20G")
"satisfied"
>>> assignedcategory("V92I")
"not satisfied"
>>> assignedcategory("V92F")
"satisfied"
>>> assignedcategory("V20L")
"satisfied"
>>> assignedcategory("V20F")
"satisfied"
